ASSAY SUMMARY: Toxicity in Swiss mice (Mus musculus) infected with chloroquine-sensitive Plasmodium berghei ANKA assessed as mortality at 50 mg/kg, intraperitoneally administered 4 to 6 hrs after infection for 5 consecutive days measured within 7 days of postinfection
Format: organism-based
Set-up: dose 50 mg/kg, route intraperitoneal
DETAILS: in vivo, ip, read-out: Activity
QUANTITY MEASURED: mortality at 7 days (%)
One number for each entry, in %.

Input: Consider the molecule CCN(CC)CCCC(C)Nc1c2c3ccccc3nc-2n(C)c2ccc(Cl)cc12 (stereo unspecified) and give its measured mortality at 7 days.
Output: 50

###

STUDY SYSTEM: Nucleic Acid
ASSAY SUMMARY: Binding affinity to DNA assessed as intercalation after 24 hrs by DNA-methyl green assay
QUANTITY MEASURED: IC50

Use the examples below as a reference point.
MOLECULE: CCN(CC)CCCC(C)Nc1c2c3ccccc3nc-2n(C)c2ccc(Cl)cc12 (stereo unspecified)
STUDY SYSTEM: Nucleic Acid
IC50: > 1000 µM
//
MOLECULE: Clc1ccc2nc3[nH]c4ccccc4c3c(N3CCC(N4CCCCC4)CC3)c2c1
STUDY SYSTEM: Nucleic Acid
IC50: > 1000 µM
//
MOLECULE: Clc1cccc2nc3[nH]c4ccccc4c3c(Cl)c12
STUDY SYSTEM: Nucleic Acid
IC50: > 1000 µM
//
MOLECULE: CCN(CC)CCCC(C)Nc1ccc2nc3n(C)c4ccccc4cc-3c2c1 (stereo unspecified)
STUDY SYSTEM: Nucleic Acid
IC50: 446 µM
//
MOLECULE: Clc1ccc2c(Cl)c3c(nc2c1)[nH]c1ccccc13
STUDY SYSTEM: Nucleic Acid
IC50: > 1000 µM

Input: Need IC50 of CCN1CCCC1CNc1c2c3ccccc3nc-2n(C)c2ccc(Cl)cc12 (stereo unspecified) , thanks.
Output: 645 µM

###

Please go through the items and note down their pIC50.
STUDY SYSTEM: Nucleic Acid
ASSAY SUMMARY: Binding affinity to DNA assessed as intercalation after 24 hrs by DNA-methyl green assay
Numbers only, as −log10 of the molar value.

MOLECULE: Cn1c2nc3ccccc3c-2c(NCCN2CCOCC2)c2cc(Cl)ccc21
READOUT VALUE: 3.93
--
MOLECULE: CCN(CC)CCCC(C)Nc1c2c3ccccc3nc-2n(C)c2cc(Cl)ccc12 (stereo not given)
READOUT VALUE: 3.61
--
MOLECULE: CCN(CC)CCCC(C)Nc1c2c3ccccc3nc-2n(C)c2ccccc12 (stereo not given)
READOUT VALUE: 3.51
--
MOLECULE: CCN(CC)CCCC(C)Nc1ccc2c(c1)cc1c3ccccc3nc-1n2C (stereo not given)
READOUT VALUE: 3.89

Alright, here's another molecule for you.
Input: // query pIC50 value for entry Cn1c2nc3ccccc3c-2c(N2CCN(CCO)CC2)c2cc(Cl)ccc21
Output: 3.42

###

STUDY SYSTEM: Nucleic Acid
ASSAY SUMMARY: Binding affinity to DNA assessed as intercalation after 24 hrs by DNA-methyl green assay
QUANTITY MEASURED: IC50

COMPOUND: Clc1ccc2nc3[nH]c4ccccc4c3c(NCCN3CCOCC3)c2c1
READOUT VALUE: > 1 mM
--
COMPOUND: Cn1c2nc3ccccc3c-2c(NCCN2CCCC2)c2cc(Cl)ccc21
READOUT VALUE: 0.186 mM
--
COMPOUND: CCN(CC)CCCC(C)Nc1c2c(Cl)cccc2nc2[nH]c3ccccc3c12 (stereo not drawn)
READOUT VALUE: > 1 mM
--
COMPOUND: Cn1c2nc3ccccc3c-2cc2cc(Cl)ccc21
READOUT VALUE: > 1 mM
--
COMPOUND: CN(C)CCNc1c2cc(Cl)ccc2nc2[nH]c3ccccc3c12
READOUT VALUE: > 1 mM
--
COMPOUND: CN1CCN(c2c3cc(Cl)ccc3nc3[nH]c4ccccc4c23)CC1
READOUT VALUE: > 1 mM

Provide each entry's IC50 from the list below.
1. Clc1ccc2nc3[nH]c4ccccc4c3c(NCCN3CCCC3)c2c1
2. CN(C)CCNc1c2c3ccccc3nc-2n(C)c2ccc(Cl)cc12

Output:
1. > 1 mM
2. 0.164 mM
